# System: NCI-H23 lung
# procedure details: NCI-60 one-dose screen, 48 h (100 = growth as untreated, 0 = no growth, -100 = all killed)
# measurement context: 10 µM unless noted
# Protocol: Growth inhibition of the NCI-H23 human Non-Small Cell Lung tumor cell line is measured as a screen for anti-cancer activity. Cells are grown in 96 well plates and exposed to the test compound for 48 hours. Compounds are tested at a single concentration, which is 10^-5 M for most compounds. The reported endpoint is percent growth (GI% or GIPRCNT), where numbers from 0 - 100% represent growth inhibition, and numbers from -100% - 0 represent cell death. […]
The panel holds about 83,000 compounds, 20% with a hit somewhere; the sample as a whole holds those more often.
endpoint name: growth (%)
Give your result in % as a bare value.

Let me know recorded growth for CCCN1CCN(c2ccc3nc(-c4ccc5nc(-c6ccc(OCC)c(OCC)c6)[nH]c5c4)[nH]c3c2)CC1 , thanks.
-53.3

Identify the reported growth for the following entry. COc1ccc(-c2nc3sc4c(c3c(=O)[nH]2)CCCC4)c2ccccc12
32.6

Output measured growth for this item: c1ccc(-c2oc3ccccc3c2-c2ccccc2)cc1
90.2

Tell me measured growth for CC(C)N(CCOC(=O)Nc1ccccc1Cl)C(C)C please.
105

Consider the compound O=C1CSC(c2ccccc2Cl)N1c1nnc(Cn2cnnc2)o1 (stereo unspecified) and give its recorded growth.
51.7

Given NC(=Nc1ccc(N)cc1)C(N)=Nc1ccc(N)cc1 , respond with its growth.
108

Tell me its growth given O=c1oc2ccc(Cl)cc2cc1-c1cs/c(=N/N=C\c2ccc(Cl)cc2)n1/N=C/c1ccc(Cl)cc1 as the entry.
99.7

Please indicate growth recorded for Cc1ccc(C)c2c1C(=O)OC2=O
95.5

Give growth for the following compound: C=C(Cl)COC(=O)C(C)(C)O
99.4

Supply reported growth belonging to this compound: Cc1nc2ccccc2c(/C=C/c2ccc(Cl)cc2)c1C(=O)/C=C/c1ccc(Cl)cc1
-19.7

For the compound CN(C)c1ccc(/C=C2\C=C(c3ccccc3)N(CCc3ccccc3)C2=O)cc1 , give its reported growth.
64.2

* * *

# Tested on: SR leukemia
# procedure details: NCI-60 one-dose screen, 48 h (100 = growth as untreated, 0 = no growth, -100 = all killed)
# measurement context: 10 µM unless noted
The panel holds about 83,000 compounds, 20% with a hit somewhere; the sample as a whole holds those more often.
The recorded growth of each item maps onto one of these classes: low band (below 10%), middle band (10% to below 80%), high band (80% or more)

Field: class (growth) — entry: Nc1ccc(-c2cc3c(Nc4ccc(OCc5cccc(F)c5)c(Cl)c4)ncnc3s2)cc1
middle band

Quick check: band for C=C1C(=O)O[C@H]2[C@H]1CC/C(COC(=O)/C=C\C(=O)NCc1ccc(Cn3c(=O)sn(-c4ccc(C#N)cc4)c3=O)cc1)=C\CC[C@@]1(C)O[C@@H]21
low band

Given Nc1nc(N)c(-c2ccc(Cl)cc2)c(/C=C/c2ccc([N+](=O)[O-])cc2)n1 , name the class its growth places it in.
middle band

Please classify: CCOc1cccnc1/C=N/NC(N)=S
low band

Please report the category associated with COc1cc(/C=C2\C=C(c3ccccc3)N(CCc3ccccc3)C2=O)cc(OC)c1OC , nothing else.
high band

Input O=C1c2ccccc2C(=O)c2cc(Cn3cc[n+](Cc4ccc5ccccc5c4)c3)ccc21 ; output its category
middle band

In plain terms, what class is C/C(Cc1ccc(Cl)cc1)=C(/c1ccc(Cl)cc1)c1ccc(OCCN(C)C)cc1 ?
low band

Could you tell me which band CCOC(=O)c1nnn(-c2ccccc2)c1C1=CN(C)CCC1 belongs to?
high band

* * *

# Tested on: CAKI-1 renal
# procedure details: NCI-60 one-dose screen, 48 h
# measurement context: 10 µM unless noted
This is part of a sample that, as a whole, favours compounds with a hit. Of some 83,000 tested, about 20% had one in any assay. Active and inactive are the calls of the source. Rule for the calls: active = growth percent below 10; inactive = the rest.
Log the outcome using a class from 1.0 for active, 0.0 for inactive

Please state the recorded outcome for this compound: Cc1cc(C)on1
0.0

Identify the outcome logged in this assay for the compound shown: COc1cc(-c2cc(-c3ccc(Nc4nc(Nc5ccccc5)nc(Nc5ccc(Cl)cc5)n4)cc3)nc(N)n2)cc(OC)c1OC
0.0

Hi, do you know how CCCCCCCSc1ccc(C(=O)O)cc1 came out in this test?
0.0

Please state the recorded outcome for this compound: O=c1cc(-c2ccc(OCc3ccccc3)cc2)oc2c(I)c(OCc3ccccc3)cc(OCc3ccccc3)c12
0.0

Outcome logged for O=C1c2ccccc2C2(c3ccc(O)cc3)c3ccccc3Oc3cccc1c32 (configuration not stated) in this assay:
0.0

Can you look up the reported call for CC12CC(C#N)CCC1O2 (configuration not stated) for me?
0.0

Write down the call the test reported for this compound. Item: Fc1ccc(Nc2nc(Nc3ccc(-c4nc5ccccc5[nH]4)cc3)c3cn[nH]c3n2)cc1
0.0

Please state the recorded outcome for this compound: C#CC[C@H](N)C(=O)O
0.0

How was c1ccc([P+](CCCc2n(Cc3ccc4ccccc4c3)c3ccccc3[n+]2Cc2ccc3ccccc3c2)(c2ccccc2)c2ccccc2)cc1 classified in this test?
0.0

What did this assay record as the result for O=C(NCOC(O)C(Cl)(Cl)Cl)NCOC(O)C(Cl)(Cl)Cl (configuration not stated) ?
0.0

Kindly provide the recorded test outcome for the following compound: C=C(C)[C@@H]1CC[C@]2(CO)CC[C@]3(C)[C@H](CC[C@@H]4[C@@]5(C)C=C(C#N)C(=O)C(C)(C)[C@@H]5CC[C@]43C)[C@@H]12
0.0

Call for entry COC(=O)c1ccc2oc(NC(=O)c3ccc(N4CCOCC4)c([N+](=O)[O-])c3)nc2c1 :
0.0

Give the logged outcome of this assay for the following compound: COc1ccc(-n2ncn(CCCCCCn3cnn(-c4ccc(OC)cc4)c3=O)c2=O)cc1
0.0

Per the assay record, what outcome was assigned to CCCCCCN(CCCCCC)CC(O)c1cccc2ccc(Cl)cc12 (configuration not stated) ?
0.0

Dear all, I need the recorded test outcome for CCCCCCNC(=O)c1cc(NCc2cc(O)ccc2O)ccc1O , thank you.
0.0

Outcome logged for CS(=O)(=O)c1ccc(-c2[nH]c3ccc(F)cc3c2/C=N/NC(N)=S)cc1 in this assay:
0.0

Hi, do you know how N#Cc1c(-c2ccccc2)nc(SCC2CO2)nc1N1CCOCC1 (configuration not stated) came out in this test?
0.0

Called result for CN=C1C=CC(=C(c2ccc(N(C)C)cc2)c2ccc(N(C)C)cc2)C=C1
1.0

What call does the record list for C=C1C(=O)O[C@H]2[C@H]1CC/C(Cn1cc(CNCCc3c[nH]c4ccc(Cl)cc34)nn1)=C\CC[C@@]1(C)O[C@@H]21 ?
0.0

Give the logged outcome of this assay for the following compound: c1ccc(-c2oc3ccccc3c2-c2ccccc2)cc1
0.0

Please indicate how the test categorized NS(=O)(=O)Oc1ccc(-c2sc3cc(O)ccc3c2C(=O)c2ccc(OCCN3CCCCC3)cc2)cc1 .
0.0

Please share the test call associated with CCn1c(Sc2nnc(Nc3ccccc3)s2)nc2c1c(=O)n(C)c(=O)n2C .
0.0

What did the test return for COc1cc(/C=C2\C=C(c3ccccc3)N(CCc3ccccc3)C2=O)cc(OC)c1OC ?
0.0

Fill in: this test's call for CC(C)n1nc(C#Cc2cccc3cc(-c4cccc(C(F)(F)F)c4)ncc23)c2c(N)ncnc21 is ___
0.0

I would be grateful if you could indicate the recorded call for C(=C\c1nc2ccccc2[nH]1)/c1nc2ccccc2[nH]1 .
0.0

Test call, this compound: N#Cc1c(N)n2c(nc1=Nc1ccc([N+](=O)[O-])cc1)sc1cc(Cl)ccc12
0.0

What is the recorded call for this compound in the test? CCCCn1c(=O)[nH]c(N)c(C(c2ccc(F)cc2)c2c(N)[nH]c(=O)n(CCCC)c2=O)c1=O
0.0

In this assay, the call recorded for Clc1ccc(/C=N\N=c2\scc(-c3ccc(Cl)cc3)n2/N=C/c2ccc(Cl)cc2)cc1 was what?
0.0

Recorded test outcome, item CSc1nc(N)c(CNC(C)c2ccccc2)c(=O)n1C (configuration not stated)
0.0

Dear all, I need the recorded test outcome for CN(CCC(=O)/C(=C\c1ccccc1)c1ccc(Cl)cc1)Cc1ccccc1 , thank you.
0.0

What call does the record list for CC(=O)c1cc2c(o1)C(=O)c1ccccc1C2=O ?
1.0

Outcome? C=CC(=O)Nc1cccc(C)c1Nc1cc(-c2cccnc2Cc2c(C)c(OC)cc(OC)c2C)ncn1
0.0

Just curious, what result did COc1ccc(/C=C(\C#N)n2nnc3ccccc32)cc1 get here?
0.0

I'd appreciate the recorded outcome for COc1cc(C(=O)/C=C/c2c(C(F)(F)F)nc3ccccn23)cc(OC)c1OC from this test.
1.0

What classification did COc1ccc(O)c(-c2cc(-c3ccccc3)c(C#N)c(=O)[nH]2)c1 end up with in this test?
0.0

Just curious, what result did CSc1nc2sc3cc(Cl)ccc3n2c(=N)c1C#N get here?
0.0

What classification did CCN(CC)CC(O)CNc1c2ccc(Cl)cc2nc2ccc(OC)cc12 (configuration not stated) end up with in this test?
1.0

Any idea what this test logged for Cc1cc(N(CCCNc2ccnc3cc(Cl)ccc23)Cc2ccccn2)nc(N2CCCC2)n1 ?
0.0

Each compound tested received a call. Report the one for c1ccc2[nH]c(SSc3nc4ncncc4[nH]3)nc2c1 .
1.0

Outcome logged for O=C(O)c1ccccc1C(=O)Nc1ccc(Cl)cc1 in this assay:
0.0

Hey, what did the test say about N#Cc1c(N)nc2c(nnn2-c2cccc(C(F)(F)F)c2)c1N ?
0.0

Hi team, can someone confirm the assay call for COc1cc(-c2ncn(/C=C\c3nnco3)n2)cc(C(F)(F)F)c1 ?
0.0
